measurement_target: Prolyl endopeptidase FAP (Homo sapiens, UniProt Q12884)
Sequence (Q12884 whole entry): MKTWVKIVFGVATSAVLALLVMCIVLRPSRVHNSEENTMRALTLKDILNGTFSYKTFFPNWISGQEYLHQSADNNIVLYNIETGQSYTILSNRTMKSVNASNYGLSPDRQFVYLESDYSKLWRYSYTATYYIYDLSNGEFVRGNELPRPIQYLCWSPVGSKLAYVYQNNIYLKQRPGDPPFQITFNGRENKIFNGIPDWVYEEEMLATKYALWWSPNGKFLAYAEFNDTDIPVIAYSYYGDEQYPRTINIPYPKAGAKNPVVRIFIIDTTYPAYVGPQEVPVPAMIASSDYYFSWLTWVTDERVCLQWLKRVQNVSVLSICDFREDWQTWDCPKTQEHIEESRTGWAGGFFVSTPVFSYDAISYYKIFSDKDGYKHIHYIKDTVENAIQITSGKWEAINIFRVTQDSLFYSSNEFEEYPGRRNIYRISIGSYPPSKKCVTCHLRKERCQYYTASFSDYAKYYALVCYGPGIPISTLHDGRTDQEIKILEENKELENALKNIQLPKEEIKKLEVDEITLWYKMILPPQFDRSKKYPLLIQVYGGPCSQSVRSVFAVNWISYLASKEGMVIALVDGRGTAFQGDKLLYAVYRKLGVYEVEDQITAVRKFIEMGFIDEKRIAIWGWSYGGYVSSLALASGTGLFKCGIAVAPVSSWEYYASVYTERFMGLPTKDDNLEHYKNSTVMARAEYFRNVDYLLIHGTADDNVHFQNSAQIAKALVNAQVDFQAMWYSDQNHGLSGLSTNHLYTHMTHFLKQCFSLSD
procedure_summary: hFAP Binding Assay
endpoint_name: koff (s⁻¹)

* N#C[C@@H]1CSCN1C(=O)CNC(=O)c1ccnc2ccc(N3CCOC4(CCOCC4)C3)cc12 | 0.0002
* N#C[C@@H]1CSCN1C(=O)CNC(=O)c1ccnc2ccc(N3CCCCO3)cc12 | 0.00014
* N#C[C@@H]1CSCN1C(=O)CNC(=O)c1ccnc2ccc(N3CC(CCC(F)(F)F)C3)cc12 | 5.5e-05

I = N#C[C@@H]1CSCN1C(=O)CNC(=O)c1ccnc2ccc(N3C[C@@H]4C[C@H]3CO4)cc12
II = Cc1nc(C)c(-c2ccc3nccc(C(=O)NCC(=O)N4CSC[C@H]4C#N)c3c2)o1
III = N#C[C@@H]1CSCN1C(=O)CNC(=O)c1ccnc2ccc(N3C[C@H](O)C(F)(F)C3)cc12
Parameters: sort_field (koff), sort_dir (desc). // ordering of labels required in reply
II, III, I
(II: 0.00017 s⁻¹, III: 6.8e-05 s⁻¹, I: 2.4e-05 s⁻¹)

a = N#C[C@@H]1CSCN1C(=O)CNC(=O)c1ccnc2ccc(N3CCOCC3)c(Cl)c12
b = CC1(C)Cc2c(-c3ccc4nccc(C(=O)NCC(=O)N5CSC[C@H]5C#N)c4c3)cnn2C1
API: POST /compare with a and b ; response names the item with higher koff. Refer to your chosen entry by its label in the reply.
b

a = N#C[C@@H]1CSCN1C(=O)CNC(=O)c1ccnc2ccc(N3CCCC(F)(F)C3)cc12
b = N#C[C@@H]1CSCN1C(=O)CNC(=O)c1ccnc2ccc(N3CC(CC(F)(F)F)C3)cc12
Determine, for a and b , which has the greater value of koff. Pick one and reply with its label.
b
(b: 0.00029 s⁻¹, a: 9e-05 s⁻¹)
